Assign IC50 to each entry below.
Biological target: Human M4 (Homo sapiens)
Construct: expressed in transfected cells; host or cells: CHO-K1 (ATCC), co-transfected with chimeric G protein Gqi5
Test: mAChR M4 cell-based functional assay (calcium flux, antagonism of EC80 acetylcholine response)
Conditions: M4/Gqi5/CHO-K1 cells; decrease of response elicited by EC80 acetylcholine
One number for each entry, in nM.

Use the examples below as a reference point.
[2H]C([2H])(C1CCOCC1)N1C[C@H]2C[C@H](Nc3cc(C4(C(F)(F)F)CC4)c(-c4cc(F)c(F)cc4F)nn3)C[C@H]2C1	46.3
[2H]C([2H])(C1CCOCC1)N1C[C@H]2C[C@H](Nc3nnc(-c4ccccc4)c(C)c3C(F)(F)F)C[C@H]2C1	12.1
COc1cc(-c2cc(F)ccc2C)nnc1N[C@H]1C[C@@H]2CN(CC3CCOCC3)C[C@@H]2C1	6.84
Fc1cc(F)c(F)c(-c2nnc(N[C@H]3C[C@@H]4CN(CC5CCOCC5)C[C@@H]4C3)cc2C(F)F)c1	0.33

Below are some compounds; for each one, tell me its IC50.
1. Cc1ccc(F)cc1-c1cc(S(C)(=O)=O)c(N[C@H]2C[C@@H]3CN(CC4CCOCC4)C[C@@H]3C2)nn1
2. Cc1c(-c2cc(C(F)F)c(N[C@H]3C[C@@H]4CN(CC5CCOCC5)C[C@@H]4C3)nn2)ccc2nn(C)cc12

Reply:
1: 18.4; 2: 0.89

###

Target: Human M4 (Homo sapiens)
Construct: expressed in transfected cells; host or cells: CHO-K1 (ATCC), co-transfected with chimeric G protein Gqi5
Test: mAChR M4 cell-based functional assay (calcium flux, antagonism of EC80 acetylcholine response)
Conditions: CHO-K1, % ACh maximum at 30 μM; M4/Gqi5/CHO-K1 cells; read-out: Human M4 Emin
OBSERVABLE: remaining activity at 30 µM (%)
One number for each entry, in %.

Cc1c(-c2cc(F)ccc2F)nnc(N[C@H]2C[C@@H]3CN(CC4CCOCC4)C[C@@H]3C2)c1C#N [compound 64]	3
[2H]C([2H])(C1CCOCC1)N1C[C@H]2C[C@H](Nc3nnc(N4CCC(F)(F)CC4)cc3C3CCC3)C[C@H]2C1 [compound 29]	2
[2H]C([2H])(C1CCOCC1)N1C[C@H]2C[C@H](Nc3nnc(-c4cc(F)ccc4C)c(C)c3C(F)(F)F)C[C@H]2C1 [compound 74]	2
[2H]C([2H])(C1CCOCC1)N1C[C@H]2C[C@H](Nc3nnc(N4CCC(F)(F)CC4)cc3C3CC3)C[C@H]2C1 [compound 28]	3
Fc1ccc(C(F)(F)F)c(-c2cc(C(F)F)c(N[C@H]3C[C@@H]4CN(CC5CCOCC5)C[C@@H]4C3)nn2)c1 [compound 87]	3

Ask: Consider the compound CC1(CN2C[C@H]3C[C@H](Nc4nnc(-c5cc(F)ccc5F)cc4C(F)F)C[C@H]3C2)CCOCC1 [compound 79] . State its measured remaining activity at 30 µM.
Reply: 4

###

Molecular target: Human M4 (Homo sapiens)
Construct: expressed in transfected cells; host or cells: CHO-K1 (ATCC), co-transfected with chimeric G protein Gqi5
Sequence (P08173 1-479): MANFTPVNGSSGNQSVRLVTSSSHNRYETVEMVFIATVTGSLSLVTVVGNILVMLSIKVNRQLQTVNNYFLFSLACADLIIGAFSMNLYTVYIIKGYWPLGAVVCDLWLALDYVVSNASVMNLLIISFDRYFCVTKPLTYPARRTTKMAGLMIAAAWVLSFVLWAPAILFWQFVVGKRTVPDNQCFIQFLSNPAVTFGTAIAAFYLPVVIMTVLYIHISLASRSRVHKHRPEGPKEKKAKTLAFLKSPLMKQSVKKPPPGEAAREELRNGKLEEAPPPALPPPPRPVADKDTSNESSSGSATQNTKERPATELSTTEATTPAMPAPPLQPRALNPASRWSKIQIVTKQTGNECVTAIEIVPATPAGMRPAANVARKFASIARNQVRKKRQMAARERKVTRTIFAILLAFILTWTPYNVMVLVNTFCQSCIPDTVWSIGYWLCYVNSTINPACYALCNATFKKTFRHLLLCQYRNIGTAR
Experiment: mAChR M4 cell-based functional assay (calcium flux, antagonism of EC80 acetylcholine response)
Conditions: CHO-K1, % ACh maximum at 30 μM; M4/Gqi5/CHO-K1 cells; read-out: Human M4 Emin
OBSERVABLE: remaining activity at 30 µM (%)
Answers are plain numbers, in %.

Use the examples below as a reference point.
Cc1ccc(F)cc1-c1nnc(N[C@H]2C[C@@H]3CN(CC4CCOCC4)C[C@@H]3C2)cc1C [compound 12]	2
[2H]C([2H])(C1CCOCC1)N1C[C@H]2C[C@H](Nc3nnc(-c4ccc5ccccc5c4)c(C)c3C)C[C@H]2C1 [compound 71]	2
OC1(CN2C[C@H]3C[C@H](Nc4nnc(-c5cc(F)ccc5F)cc4C(F)F)C[C@H]3C2)CCOCC1 [compound 78]	4
COc1cc(-c2ccccc2F)nnc1N[C@H]1C[C@@H]2CN(CC3CCOCC3)C[C@@H]2C1 [compound 2]	3
Cc1c(Cl)nnc(N[C@H]2C[C@@H]3CN(CC4CCOCC4)C[C@@H]3C2)c1C#N [compound 65]	8

Below are some compounds; for each one, tell me its remaining activity at 30 µM.
1. Cc1ccc(F)cc1-c1nnc(N[C@H]2C[C@@H]3CN(CC4CCOCC4)C[C@@H]3C2)cc1C(F)F [compound 43]
2. Cc1cc(N[C@H]2C[C@@H]3CN(CC4CCOCC4)C[C@@H]3C2)nnc1-c1cc(F)ccc1Cl [compound 14]
3. Cc1c(-c2ccc3nn(C)cc3c2)nnc(N[C@H]2C[C@@H]3CN(CC4CCOCC4)C[C@@H]3C2)c1C#N [compound 72]
4. [2H]C([2H])(C1CCOCC1)N1C[C@H]2C[C@H](Nc3nnc(-c4cc(F)ccc4F)cc3C(F)F)C[C@H]2C1 [compound 25]

Reply:
[2, 3, 4, 3]

Below are some compounds; for each one, tell me its remaining activity at 30 µM.
1. COc1cc(-c2cc(F)ccc2F)nnc1N[C@H]1C[C@@H]2CN(CC3CCOCC3)C[C@@H]2C1 [compound 4]
2. [2H]C([2H])(C1CCOCC1)N1C[C@H]2C[C@H](Nc3cc(C)c(-c4cc(F)cc(F)c4F)nn3)C[C@H]2C1 [compound 37]
3. [2H]C([2H])(C1CCOCC1)N1C[C@H]2C[C@H](Nc3cc(C)c(-c4cc(F)ccc4F)nn3)C[C@H]2C1 [compound 17]
4. COc1ccc(F)cc1-c1nnc(N[C@H]2C[C@@H]3CN(CC4CCOCC4)C[C@@H]3C2)cc1C(F)F [compound 42]
5. Cc1c(-c2ccccc2F)nnc(N[C@H]2C[C@@H]3CN(CC4CCOCC4)C[C@@H]3C2)c1C#N [compound 68]
6. [2H]C([2H])(C1CCOCC1)N1C[C@H]2C[C@H](Nc3cc(C(F)F)c(-c4cc(F)cc(F)c4F)nn3)C[C@H]2C1 [compound 40]
7. Cc1ccc(F)cc1-c1cc(S(C)(=O)=O)c(N[C@H]2C[C@@H]3CN(CC4CCOCC4)C[C@@H]3C2)nn1 [compound 9]
8. Cc1ccc(F)cc1-c1cc(-c2cc(F)ccc2C)c(N[C@H]2C[C@@H]3CN(CC4CCOCC4)C[C@@H]3C2)nn1 [compound 10]

Reply:
[3, 3, 3, 2, 3, 3, 3, 3]

Below are some compounds; for each one, tell me its remaining activity at 30 µM.
1. Fc1cc(F)c(F)c(-c2nnc(N[C@H]3C[C@@H]4CN(CC5CCCOC5)C[C@@H]4C3)cc2C(F)F)c1 (single isomer, unassigned) [compound 48]
2. COc1cc(-c2ccc3nn(C)cc3c2C)nnc1N[C@H]1C[C@@H]2CN(CC3CCOCC3)C[C@@H]2C1 [compound 8]
3. [2H]C([2H])(C1CCOCC1)N1C[C@H]2C[C@H](Nc3nnc(-c4cc(F)cc(F)c4F)cc3C(C)(C)C)C[C@H]2C1 [compound 36]

Reply:
[2, 4, 4]

Below are some compounds; for each one, tell me its remaining activity at 30 µM.
1. [2H]C([2H])(C1CCOCC1)N1C[C@H]2C[C@H](Nc3nnc(-c4cccc(F)c4)cc3C)C[C@H]2C1 [compound 21]
2. COc1cc(-c2cccc(F)c2)nnc1N[C@H]1C[C@@H]2CN(CC3CCOCC3)C[C@@H]2C1 [compound 1]
3. Fc1cc(F)c(F)c(-c2nnc(N[C@H]3C[C@@H]4CN(CC5CCOCC5)C[C@@H]4C3)cc2C(F)F)c1 [compound 41]
4. Cc1cc(N[C@H]2C[C@@H]3CN(CC4CCOCC4)C[C@@H]3C2)nnc1-c1cc(F)cc(F)c1F [compound 35]
5. COc1ccc(F)cc1-c1cc(C(F)F)c(N[C@H]2C[C@@H]3CN(CC4CCOCC4)C[C@@H]3C2)nn1 [compound 85]
6. COc1cc(-c2cc3cn(C)nc3cc2F)nnc1N[C@H]1C[C@@H]2CN(CC3CCOCC3)C[C@@H]2C1 [compound 6]

Reply:
3
5
3
3
4
4
